system: Pseudomonas aeruginosa; assay: Antibacterial activity against Pseudomonas aeruginosa at 10 ug/ml after 24 hr by disk diffusion method; type: functional; settings: read-out: DIZ
Please provide measured zone of inhibition at 10 µg/mL for the entries that follow.
# output: bare number, implied unit mm

Looking up `N#CC(=C1CCCC1)c1nc2cc(Cl)ccc2o1` , I see its zone of inhibition at 10 µg/mL listed as 10

In plain terms, `COc1cc(/C=C(\C#N)c2nc3cc(Cl)ccc3o2)cc(OC)c1OC` has a documented zone of inhibition at 10 µg/mL of 15

Recorded zone of inhibition at 10 µg/mL (molecule `COc1ccc(N/N=C(\C#N)c2nc3cc(Cl)ccc3o2)cc1` ): 5

Per the records, this molecule ( `N#CC(=C1CCCCC1)c1nc2cc(Cl)ccc2o1` ) has zone of inhibition at 10 µg/mL equal to 10

The molecule listed as `COc1ccc(/C=C(\C#N)c2nc3cc(Cl)ccc3o2)cc1` shows zone of inhibition at 10 µg/mL equal to 10
